// provenance: ChEMBL document CHEMBL4014320

# TESTED_ON: Peroxisome proliferator-activated receptor gamma (Homo sapiens) (UniProt P37231)
# Sequence (P37231 whole entry, the tested form may be a part): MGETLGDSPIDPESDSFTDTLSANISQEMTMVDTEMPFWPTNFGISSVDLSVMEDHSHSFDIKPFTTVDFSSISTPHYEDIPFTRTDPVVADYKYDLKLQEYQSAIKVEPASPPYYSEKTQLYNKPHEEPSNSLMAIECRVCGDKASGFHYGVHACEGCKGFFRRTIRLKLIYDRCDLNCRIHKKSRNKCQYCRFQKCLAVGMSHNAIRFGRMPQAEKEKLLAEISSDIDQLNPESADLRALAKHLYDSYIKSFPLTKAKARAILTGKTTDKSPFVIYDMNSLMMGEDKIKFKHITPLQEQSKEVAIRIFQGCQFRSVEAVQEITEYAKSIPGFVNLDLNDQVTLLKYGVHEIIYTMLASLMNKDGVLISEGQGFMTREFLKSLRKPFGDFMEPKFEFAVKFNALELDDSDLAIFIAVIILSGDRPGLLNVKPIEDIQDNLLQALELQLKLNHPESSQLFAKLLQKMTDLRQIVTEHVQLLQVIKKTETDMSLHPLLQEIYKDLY
# TEST_SUMMARY: Agonist activity at human GAL4 fused PPARgamma-Hinge-LBD expressed in HEK293T cells after 18 hrs by luciferase reporter gene assay relative to rosiglitazone
# Type: cell-based
# SETUP_CONDITIONS: HEK-293T

# CPD_SMILES, UNITS_TEXT, Activity
measured = [
    ("O=S(=O)(Nc1cc(Cl)c(Oc2cnc3ccccc3c2)c(Cl)c1)c1ccc(Br)c(F)c1", "%", 9),
    ("O=S(=O)(Nc1cc(Cl)c(Oc2cnc3ccccc3c2)c(Cl)c1)c1ccc2ccccc2c1", "%", 23),
    ("O=S(=O)(Nc1cc(Cl)c(Oc2cnc3ccccc3c2)c(Cl)c1)c1cccs1", "%", 14),
    ("O=S(=O)(Nc1cc(Cl)c(Oc2cnc3ccccc3c2)c(Cl)c1)c1ccc(Br)cc1Cl", "%", 27),
    ("O=S(=O)(Nc1cc(Cl)c(Oc2cnc3ccccc3c2)c(Cl)c1)c1ccc(Br)cc1", "%", 11),
    ("O=S(=O)(Nc1cc(Cl)c(Oc2cnc3ccccc3c2)c(Cl)c1)c1ccc(Br)cc1F", "%", 13),
    ("Cc1cc(C)c(S(=O)(=O)Nc2cc(Cl)c(Oc3cnc4ccccc4c3)c(Cl)c2)c(C)c1", "%", 14),
    ("O=S(=O)(Nc1cc(Cl)c(Oc2cnc3ccccc3c2)c(Cl)c1)c1ccc(Br)cc1C(F)(F)F", "%", 34),
    ("O=S(=O)(Nc1cc(Cl)c(Oc2cnc3ccccc3c2)c(Cl)c1)c1ccc(Br)cc1OC(F)(F)F", "%", 21),
]
